In this section, each of the compounds is paired with its reported melting point.
Number only, in °C; omit the unit.

INSERT INTO assay_data (compound, recorded_number) VALUES
  ('CCCCc1nc(CO)c(C(=O)OC)n1Cc1ccc(-c2ccccc2C(=O)OC(C)(C)C)cc1', 99);

In the following, a different compound is considered.
If you can, please state the reported melting point value of COc1ccc(S(=O)(=O)C(C)(Cc2ccc(OCCCN3CCC(c4cccc(Cl)c4)CC3)cc2)C(=O)NO)cc1 (stereo not given) .
122

----------
Quantity kind: melting point

In the examples that follow, each entry is paired with its recorded melting point.
INSERT INTO measurements (molecule, result) VALUES
  ('Fc1cnc(Nc2nc3c(s2)CCN(CCCN2CCOCC2)c2n[nH]cc2-3)nc1', '251 to 254 °C'),
  ('COc1cccc(NC(=O)c2cc(C#N)cc(C)n2)c1', '189 °C'),
  ('Cc1noc(NS(=O)(=O)c2ccccc2-c2ccc(-c3ncco3)cc2COc2ccc(-c3ccccc3)cc2)c1C', '95 to 105 °C'),
  ('CCN(CC)Cc1cc(Nc2ccnc3cc(Cl)ccc23)c2ccccc2c1O', '158 to 160 °C');

If you can, please state the reported melting point value of CC1(C)C(=O)Nc2cc3[nH]c(C4CCCCC4)nc3cc21 .
315 to 318 °C

Now consider CSc1noc(-c2ccc(OCCOc3ccc(C)cc3)cc2)c1C#N and answer again.
139 to 140 °C

Now consider Cc1cc(Br)ccc1-n1c(C(F)(F)F)nn(C)c1=O and answer again.
80 to 83 °C
